Molecular target: T1, human Fc Receptor-Like 5 (FcRL5), full length, expressed on cells (human, UniProt Q96RD9 16-977)
T1 construct: also called CD307e; IRTA2
T1 sequence: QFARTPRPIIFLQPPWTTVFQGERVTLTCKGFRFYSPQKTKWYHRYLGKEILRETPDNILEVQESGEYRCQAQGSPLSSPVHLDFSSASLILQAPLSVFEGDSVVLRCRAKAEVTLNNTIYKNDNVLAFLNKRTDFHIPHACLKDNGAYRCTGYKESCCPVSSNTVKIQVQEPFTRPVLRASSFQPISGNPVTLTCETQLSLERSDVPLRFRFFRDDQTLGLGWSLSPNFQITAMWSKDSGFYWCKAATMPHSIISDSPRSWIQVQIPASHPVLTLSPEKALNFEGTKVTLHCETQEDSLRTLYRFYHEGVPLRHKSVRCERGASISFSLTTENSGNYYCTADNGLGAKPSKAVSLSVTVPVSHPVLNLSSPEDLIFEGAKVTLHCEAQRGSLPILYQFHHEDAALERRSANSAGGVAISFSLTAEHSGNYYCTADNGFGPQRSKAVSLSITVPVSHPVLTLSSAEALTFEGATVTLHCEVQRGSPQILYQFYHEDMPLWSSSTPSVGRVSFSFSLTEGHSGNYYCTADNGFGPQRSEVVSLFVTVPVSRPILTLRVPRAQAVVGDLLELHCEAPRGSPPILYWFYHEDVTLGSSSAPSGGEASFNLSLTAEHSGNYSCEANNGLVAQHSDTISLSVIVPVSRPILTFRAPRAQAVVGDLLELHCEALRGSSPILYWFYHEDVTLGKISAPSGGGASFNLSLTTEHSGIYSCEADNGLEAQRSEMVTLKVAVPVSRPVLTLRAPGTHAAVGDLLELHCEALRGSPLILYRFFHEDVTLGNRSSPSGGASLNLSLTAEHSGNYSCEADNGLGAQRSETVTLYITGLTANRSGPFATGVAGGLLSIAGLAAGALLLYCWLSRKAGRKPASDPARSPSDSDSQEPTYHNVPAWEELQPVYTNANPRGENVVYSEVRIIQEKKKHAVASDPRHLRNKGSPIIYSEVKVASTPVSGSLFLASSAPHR
Test: scFv phage: ELISA on His-tag FcRL5, flow cytometry on FcRL5-overexpressing 3T3 and Raji cells
quantity.kind: binding result

{"binder": "ET200-035 scFv (scFv, VL-linker-VH; screened as scFv phage clone) scFv: NFMLTQPHSVSESPGKTVTISCTRSSGSIASNYVQWYQQRPGSAPTTVIYEDNQRPSGVPDRFSGSIDSSSNSASLTISGLKTEDEADYYCQSYDSTNWVFGGGTKLTVLGSRGGGGSGGGGSGGGGSLEMAQVQLVQSGAEVKKPGSSVKVSCKASGGTFSSYAISWVRQAPGQGLEWMGGIIPIFGTANYAQKFQGRVTITADESTSTAYMELSSLRSEDTAVYYCARYNYYFNDYWGQGTLVTVSS", "val": "binds"}
{"binder": "ET200-042 scFv (scFv, VL-linker-VH; screened as scFv phage clone) scFv: QSVVTQPPSVSGAPGQTVTISCTGGSSNIGTGYFVNWYQQVPGKAPKLLILGNNNRPSGVPDRLSGSTSGTSASLAITGLQAEDEGTYYCQSYDSSLSGYVFGTGTKVTVLGSRGGGGSGGGGSGGGGSLEMAQVQLQQSGPGLVKPSQTLSLTCGISGDSVSTNSVAWHWIRQSPSRGLEWLGRTYYRSKWSNDYGVSVKSRITIIPDTSKNQFSLQLNSVTPEDTAVYYCARSSSWYQIFDYWGQGTLVTVSS", "val": "binds"}
{"binder": "ET200-008 scFv (scFv, VL-linker-VH; screened as scFv phage clone) scFv: QSALTQPASVSGSPGQSITISCTGTSSDVGGYNYVSWYQQHPGKAPKLMIYDVSNRPSGVSNRFSGSKSGNTASLTISGLQAEDEADYYCSSYTSSSTSKVFGGGTKLTVLGSRGGGGSGGGGSGGGGSLEMAEVQLVESGGGVVRPGGSLRLSCAASGFTFGDYGMSWVRQAPGKGLEWVSGINWNGGSTGYADSVKGRFTISRDNAKNSLYLQMNSLRAEDTAVYYCARSKYNFHVYYDYWGQGTLVTVSS", "val": "binds"}
